# assay.details: Hydrolysis of prodrugs to treprostinil at pH 6, 7, 8 and 40 C
# Format: physicochemical
# condition.details: pH 6, 40 C., 1 week
experimental.endpoint: Hydrolysis to treprostinil, % Area, t = 1 week (% Area)

1) CCCCCC(CCC1C(O)CC2Cc3c(cccc3OCC(=O)O)CC21)OC(=O)c1ccc(O)cc1 (centres unmarked) [Prodrug LXVIII] ... 0.00
2) CCCCCC(CCC1C(O)CC2Cc3c(cccc3OCC(=O)O)CC21)OC(=O)c1ccc(O)c(O)c1 (centres unmarked) [Prodrug LXVI] ... 0.47
3) CCCCCC(CCC1C(O)CC2Cc3c(cccc3OCC(=O)O)CC21)OC(=O)C12CC3CC(CC(C3)C1)C2 (centres unmarked) [Prodrug LXIX] ... 0.00
4) CCCCCC(CCC1C(O)CC2Cc3c(cccc3OCC(=O)O)CC21)OC(=O)C(C)C (centres unmarked) [Prodrug LXVII] ... 0.00
5) CCCCCC(CCC1C(O)CC2Cc3c(cccc3OCC(=O)O)CC21)OC(=O)COc1ccccc1 (centres unmarked) [Prodrug LXV] ... 0.13
6) CCCCCC(CCC1C(O)CC2Cc3c(cccc3OCC(=O)O)CC21)OC(=O)COc1ccc(OC(F)(F)F)cc1 (centres unmarked) [Prodrug LXIV] ... 0.72
7) CCCCCC(CCC1C(OC(=O)OC)CC2Cc3c(cccc3OCC(=O)O)CC21)OC(=O)OC (centres unmarked) [Prodrug LXXI, treprostinil dicarbonate] ... 0.00
8) CCCCCC(CCC1C(OC(=O)CC)CC2Cc3c(cccc3OCC(=O)O)CC21)OC(=O)CC (centres unmarked) [Prodrug LXX, treprostinil dipropionate] ... 0.00

----------
Measured Trep Concentration 20 min of individual entries
# assay.details: Stability in liver microsomes, human
# Method: Mixed-gender human liver microsomes, male Sprague-Dawley rat liver microsomes, and male Beagle dog liver microsomes were purchased from XenoTech. The reaction mixture, minus NADPH, was prepared as described below. […] Aliquots of the supernatant were removed, diluted 1:1 into distilled water containing internal standard, and analyzed by LC-MS/MS against calibration standards prepared in a matched matrix. All samples were analyzed for the dosed prodrugs as well as the drug, treprostinil. […]
experimental.endpoint: Trep Concentration 20 min (µM)

1) CCCCCC(CCC1C(O)CC2Cc3c(cccc3OCC(=O)O)CC21)OC(=O)N1CCCCC1 (stereo not drawn) [XIX] ... 0.014
2) CCCCCC(CCC1C(O)CC2Cc3c(cccc3OCC(=O)O)CC21)OCC(=O)O (stereo not drawn) [LVII] ... 0
3) CCCCCC(CCC1C(O)CC2Cc3c(cccc3OCC(=O)O)CC21)OC(=O)c1ccc(C(F)(F)F)cc1 (stereo not drawn) [LXII] ... 0.174
4) CCCCC[C@H]1CC[C@@H]2[C@H]3Cc4cccc(OCC(=O)O)c4C[C@H]3C[C@H]2OC(=O)O1 [XXIV] ... 0.341
5) CCCCCC(CCC1C(O)CC2Cc3c(cccc3OCC(=O)O)CC21)OC(=O)OCC(=O)O (stereo not drawn) [XXXIX] ... 0
6) CCCCCC(O)CCC1C(OC(=O)CCC(=O)O)CC2Cc3c(cccc3OCC(=O)O)CC21 (stereo not drawn) [XXII] ... 0

----------
# assay.details: Stability in cryopreserved hepatocytes, rat
Range-based classes on measured Trep Concentration (μM) 15 min: low class = under 0.009 µM, middle class = from 0.009 µM up to 0.2 µM, high class = 0.2 µM and over

1) CCCCCC(CCC1C(O)CC2Cc3c(cccc3OCC(=O)O)CC21)OCCN1CCOCC1 (centres unmarked) ... low class
2) CCCCCC(CCC1C(O)CC2Cc3c(cccc3OCC(=O)O)CC21)OP(=O)(O)O (centres unmarked) ... high class
3) CCCCCC(CCC1C(O)CC2Cc3c(cccc3OCC(=O)O)CC21)OC(=O)c1ccc(C)cc1 (centres unmarked) ... middle class
4) CCCCCC(CCC1C(O)CC2Cc3c(cccc3OCC(=O)O)CC21)OC(=O)c1ccccc1O (centres unmarked) ... low class
5) CCCCCC(CCC1C(O)CC2Cc3c(cccc3OCC(=O)O)CC21)OCCC (centres unmarked) ... middle class
6) CCCCCC(CCC1C(O)CC2Cc3c(cccc3OCC(=O)O)CC21)OC(=O)COc1ccccc1 (centres unmarked) ... high class
7) CCCCCC(CCC1C(O)CC2Cc3c(cccc3OCC(=O)O)CC21)OC(=O)C1CCCN1 (centres unmarked) ... high class
8) CCCCCC(CCC1C(O)CC2Cc3c(cccc3OCC(=O)O)CC21)OC(=O)C12CC3CC(CC(C3)C1)C2 (centres unmarked) ... middle class
9) CCCCCC(CCC1C(O)CC2Cc3c(cccc3OCC(=O)O)CC21)OC(=O)N1CCC(O)CC1 (centres unmarked) ... low class
10) CCCCCC(CCC1C(O)CC2Cc3c(cccc3OCC(=O)O)CC21)OC(=O)C(C)(C)C (centres unmarked) ... middle class
11) CCCCCC(CCC1C(OC(=O)CC)CC2Cc3c(cccc3OCC(=O)O)CC21)OC(=O)CC (centres unmarked) [Prodrug LXX, treprostinil dipropionate] ... high class
12) CCCCCC(CCC1C(O)CC2Cc3c(cccc3OCC(=O)O)CC21)OC(=O)c1cccc(O)c1 (centres unmarked) ... middle class
13) CCCCCC(CCC1C(O)CC2Cc3c(cccc3OCC(=O)O)CC21)OC(=O)c1ccc(C(F)(F)F)cc1 (centres unmarked) ... middle class
14) CCCCCC(CCC1C(O)CC2Cc3c(cccc3OCC(=O)O)CC21)OC(=O)COc1ccc(OC(F)(F)F)cc1 (centres unmarked) ... high class
15) CCCCCC(CCC1C(O)CC2Cc3c(cccc3OCC(=O)O)CC21)OC (centres unmarked) ... low class
16) CCCCCC1CCC2C(CC3Cc4c(cccc4OCC(=O)O)CC32)OP(=O)(Oc2ccccc2)O1 (mixture of isomers) ... low class
17) CCCCCC(CCC1C(O)CC2Cc3c(cccc3OCC(=O)O)CC21)OCc1oc(=O)oc1C (centres unmarked) ... high class
18) CCCCCC(CCC1C(O)CC2Cc3c(cccc3OCC(=O)O)CC21)OC(=O)CO (centres unmarked) ... middle class
19) CCCCCC(CCC1C(O)CC2Cc3c(cccc3OCC(=O)O)CC21)OCC (centres unmarked) ... middle class
20) CCCCCC(CCC1C(O)CC2Cc3c(cccc3OCC(=O)O)CC21)OC(=O)CCC(=O)O (centres unmarked) ... high class
21) CCCCCC(CCC1C(O)CC2Cc3c(cccc3OCC(=O)O)CC21)OC(=O)C(C)C (centres unmarked) ... high class
22) CCCCCC(CCC1C(O)CC2Cc3c(cccc3OCC(=O)O)CC21)OC(=O)c1ccc(O)cc1 (centres unmarked) ... low class
23) CCCCC[C@H]1CC[C@@H]2[C@H]3Cc4cccc(OCC(=O)O)c4C[C@H]3C[C@H]2OC(=O)O1 ... high class
24) CCCCCC(CCC1C(O)CC2Cc3c(cccc3OCC(=O)O)CC21)OC(=O)COc1ccc(O)cc1 (centres unmarked) ... high class
25) CCCCCC(CCC1C(O)CC2Cc3c(cccc3OCC(=O)O)CC21)OC(N)=O (centres unmarked) ... high class
26) CCCCCC(CCC1C(O)CC2Cc3c(cccc3OCC(=O)O)CC21)OCC(=O)O (centres unmarked) ... low class
27) CCCCCC(CCC1C(O)CC2Cc3c(cccc3OCC(=O)O)CC21)OC(=O)c1ccc(O)c(O)c1 (centres unmarked) ... low class
28) CCCCCC(CCC1C(O)CC2Cc3c(cccc3OCC(=O)O)CC21)OC(=O)CC (centres unmarked) ... high class
29) CCCCCC(CCC1C(O)CC2Cc3c(cccc3OCC(=O)O)CC21)Oc1ccccc1C(=O)O (centres unmarked) ... low class
30) CCCCCC(CCC1C(O)CC2Cc3c(cccc3OCC(=O)O)CC21)OC(=O)CCC(=O)N1CCOCC1 (centres unmarked) ... middle class
31) CCCCCC(CCC1C(O)CC2Cc3c(cccc3OCC(=O)O)CC21)OC(=O)NC (centres unmarked) ... low class
32) CCCCCC(CCC1C(O)CC2Cc3c(cccc3OCC(=O)O)CC21)OC(=O)CCN (centres unmarked) ... middle class
33) CCCCCC(CCC1C(O)CC2Cc3c(cccc3OCC(=O)O)CC21)OC(=O)C(N)CCCCN (centres unmarked) ... middle class
34) CCCCCC(CCC1C(O)CC2Cc3c(cccc3OCC(=O)O)CC21)OC(C)=O (centres unmarked) ... middle class
35) CCCCCC(CCC1C(O)CC2Cc3c(cccc3OCC(=O)O)CC21)OC(=O)NCCO (centres unmarked) ... low class

----------
# assay.details: Stability in liver microsomes, human
experimental.endpoint: Trep Concentration 60 min (µM)

1. CCCCCC(CCC1C(O)CC2Cc3c(cccc3OCC(=O)O)CC21)OC(=O)CCC(=O)O (centres unmarked) [XX] ... 0.16
2. CCCCCC(CCC1C(O)CC2Cc3c(cccc3OCC(=O)O)CC21)OC(=O)OCC(=O)O (centres unmarked) [XXXIX] ... 0
3. CCCCCC(CCC1C(O)CC2Cc3c(cccc3OCC(=O)O)CC21)OC(=O)C1CCCN1 (centres unmarked) [XXXVI] ... 0.316
4. CCCCCC(CCC1C(O)CC2Cc3c(cccc3OCC(=O)O)CC21)OCCC (centres unmarked) [XLVI] ... 0.0835
5. CCCCCC(CCC1C(O)CC2Cc3c(cccc3OCC(=O)O)CC21)OC(=O)CCC(=O)N1CCOCC1 (centres unmarked) [XXXIII] ... 0
6. CCCCCC(CCC1C(O)CC2Cc3c(cccc3OCC(=O)O)CC21)OC(=O)COc1ccc(O)cc1 (centres unmarked) [LIV] ... 0.338
7. CCCCCC(CCC1C(O)CC2Cc3c(cccc3OCC(=O)O)CC21)OP(=O)(O)O (centres unmarked) [VI] ... 0.061
8. CCCCCC(CCC1C(O)CC2Cc3c(cccc3OCC(=O)O)CC21)OC(=O)C(C)(C)C (centres unmarked) [XLIX] ... 0.125
9. CCCCCC(CCC1C(O)CC2Cc3c(cccc3OCC(=O)O)CC21)OC(=O)CO (centres unmarked) [XLIV] ... 0.307
10. CCCCCC(CCC1C(O)CC2Cc3c(cccc3OCC(=O)O)CC21)OC(=O)NCC(=O)O (centres unmarked) [XXXVIII] ... 0
11. CCCCCC(CCC1C(O)CC2Cc3c(cccc3OCC(=O)O)CC21)OC(=O)CN (centres unmarked) [XXX] ... 0.429
12. CCCCCC(CCC1C(OC(=O)CC)CC2Cc3c(cccc3OCC(=O)O)CC21)OC(=O)CC (centres unmarked) [Prodrug LXX, treprostinil dipropionate] ... 0.381
13. CCCCCC(CCC1C(O)CC2Cc3c(cccc3OCC(=O)O)CC21)OCC(=O)O (centres unmarked) [LVII] ... 0
14. CCCCCC(CCC1C(O)CC2Cc3c(cccc3OCC(=O)O)CC21)OC(=O)C(C)N (centres unmarked) [XXXI] ... 0.383
15. CCCCCC(CCC1C(O)CC2Cc3c(cccc3OCC(=O)O)CC21)OCOC(=O)C(C)(C)C (centres unmarked) [LII] ... 0.346
16. CCCCCC(CCC1C(O)CC2Cc3c(cccc3OCC(=O)O)CC21)Oc1ccccc1C(=O)O (centres unmarked) [LVI] ... 0
17. CCCCCC(CCC1C(O)CC2Cc3c(cccc3OCC(=O)O)CC21)OC(=O)OCC (centres unmarked) [XVI] ... 0.25
